The reported measurements were obtained from ChEMBL document CHEMBL3808337.

- PROCEDURE DETAILS: Oral bioavailability in Balb/C mouse at 5 mg/kg after 24 hrs by ESI-LCMS/MS analysis
- Type: ADME, organism-based
- CONDITION DETAILS: in vivo
MEASURED METRIC: bioavailability (%)

[
  {
    "SMILES TEXT": "COc1cc(-c2cnn(C)c2)ccc1Nc1ncc2ccnc(N[C@@H](C)C(C)(C)C)c2n1",
    "EXPERIMENTAL VALUE": 68
  }
]

====

- ASSAYED SYSTEM: Mitogen-activated protein kinase 9 (Homo sapiens, UniProt P45984)
- Sequence (P45984 whole entry): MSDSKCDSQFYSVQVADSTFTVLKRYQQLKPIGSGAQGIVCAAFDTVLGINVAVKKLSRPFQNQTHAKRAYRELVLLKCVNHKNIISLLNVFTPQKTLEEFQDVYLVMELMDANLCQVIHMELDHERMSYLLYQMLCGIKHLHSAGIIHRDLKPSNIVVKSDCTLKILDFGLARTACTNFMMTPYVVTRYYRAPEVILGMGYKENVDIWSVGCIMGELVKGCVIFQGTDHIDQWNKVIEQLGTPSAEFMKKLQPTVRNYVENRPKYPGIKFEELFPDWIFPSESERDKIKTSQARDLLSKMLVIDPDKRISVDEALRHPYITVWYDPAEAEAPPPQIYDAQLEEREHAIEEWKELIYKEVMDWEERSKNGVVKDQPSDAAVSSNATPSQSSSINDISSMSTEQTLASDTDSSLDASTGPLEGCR
- PROCEDURE DETAILS: Inhibition of human full length recombinant His-tagged JNK2 expressed in baculovirus by lanthascreen assay

[
  {
    "SMILES TEXT": "COc1cc(-c2cnn(C)c2)ccc1Nc1ncc2ccnc(N[C@@H](C)C(C)(C)C)c2n1",
    "UNIT OF MEASURE": "nM",
    "IC50": 220
  }
]
